Test: Cell Viability - NIH 3T3 (AID 541);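 further: cells exposed to compound for 40 hours; plate controls were DMSO alone for no effect and tamoxifen positive control for full effect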
Conditions: NIH 3T3 cell viability, qHTS; at 92.2 µM (top of the series)
Results filed as inconclusive are left out.
measured endpoint: activity change, negative = cytotoxicity (%)
// return numeric value only (unit: %, not printed)

Recorded results for 5 compounds are shown here.
compound | measured endpoint | unit label | measurement
NCCNc1cccc2ccccc12 | activity change, negative = cytotoxicity | % | -24.9
CCOc1ccc(NC(C)=O)cc1 | activity change, negative = cytotoxicity | % | -21.8
COc1ccc(C(=O)c2ccccc2)c(O)c1 | activity change, negative = cytotoxicity | % | -13.4
Oc1ccc(Cl)cc1Cc1cc(Cl)ccc1O | activity change, negative = cytotoxicity | % | -84.9
NC(=O)c1ccccc1O | activity change, negative = cytotoxicity | % | 6.43

Just so you know, measured activity change, negative = cytotoxicity for CCCCC(CC)COC(=O)c1ccc(N(C)C)cc1 (configuration not stated) came out at -7.45

Just so you know, measured activity change, negative = cytotoxicity for "O=C(O)c1ccc(S(=O)(=O)N(Cl)Cl)cc1" came out at -11.9
